# Tested On: Calcitonin receptor (Homo sapiens); also: in other assays of this panel Not Active means under 50% inhibition at 10 µM
# Sequence (P30988 whole entry): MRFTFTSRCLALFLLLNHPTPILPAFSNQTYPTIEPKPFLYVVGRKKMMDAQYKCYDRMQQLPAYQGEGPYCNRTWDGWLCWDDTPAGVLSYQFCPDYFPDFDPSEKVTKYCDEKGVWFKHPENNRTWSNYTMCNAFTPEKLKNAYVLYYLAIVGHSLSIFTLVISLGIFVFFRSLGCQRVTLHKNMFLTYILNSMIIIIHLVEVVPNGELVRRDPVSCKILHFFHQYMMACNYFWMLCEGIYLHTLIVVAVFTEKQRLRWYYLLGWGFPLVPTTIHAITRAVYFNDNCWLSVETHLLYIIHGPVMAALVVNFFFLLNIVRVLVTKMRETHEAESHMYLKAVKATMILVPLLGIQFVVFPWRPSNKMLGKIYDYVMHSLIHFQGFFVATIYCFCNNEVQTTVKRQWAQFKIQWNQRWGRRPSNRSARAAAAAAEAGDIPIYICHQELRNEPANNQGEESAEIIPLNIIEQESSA
# Type: cell membranes, Membrane
# Measurement Context: t47d
Observed Property: IC50

Previously resolved entries follow.
{"columns": ["Molecule", "IC50"],
 "data": [
  ["CCS(=O)(=O)CCn1c([N+](=O)[O-])cnc1C [TINIDAZOLE]", "Not Active"],
  ["CC(=O)Nc1nnc(S(N)(=O)=O)s1 [ACETAZOLAMIDE]", "Not Active"],
  ["CC(C(=O)O)c1ccc(CC2CCCC2=O)cc1 (stereo not given) [LOXOPROFEN]", "Not Active"],
  ["Cc1cn[nH]c1 [FOMEPIZOLE]", "Not Active"],
  ["COC(=O)c1ccccc1O [METHYL SALICYLATE]", "Not Active"]
]}

Fill in the recorded IC50 for this molecule, with Calcitonin receptor (Homo sapiens) as test system: CC[C@H]1OC(=O)[C@H](C)[C@@H](O[C@H]2C[C@@](C)(OC)[C@@H](O)[C@H](C)O2)[C@H](C)[C@@H](O[C@@H]2O[C@H](C)C[C@H](N(C)C)[C@H]2O)[C@](C)(OC)C[C@@H](C)C(=O)[C@H](C)[C@@H](O)[C@]1(C)O [CLARITHROMYCIN]
Not Active

Provide value of IC50 for this record tested with Calcitonin receptor (Homo sapiens): CN1C2CCCC1CC(NC(=O)c1nn(C)c3ccccc13)C2 (stereo not given) [GRANISETRON]
Not Active

Record lookup: for Calcitonin receptor (Homo sapiens), what IC50 belongs to NC[C@H]1O[C@H](O[C@H]2[C@H](O)[C@@H](O[C@H]3O[C@H](CO)[C@@H](O)[C@H](N)[C@H]3O)[C@H](N)C[C@@H]2N)[C@H](N)C[C@@H]1O [TOBRAMYCIN] ?
Not Active

API: value(readout=IC50, system=Calcitonin receptor (Homo sapiens)) for record C[C@H](C(=O)O)c1cccc(C(=O)c2ccccc2)c1 [DEXKETOPROFEN]; also: in other assays of this panel Not Active means under 50% inhibition at 10 µM
Not Active

Look up IC50 with Calcitonin receptor (Homo sapiens) for this molecule: CC(CCc1ccc(O)cc1)NCCc1ccc(O)c(O)c1 (stereo not given) [DOBUTAMINE]
Not Active

----------
# Tested On: Platelet-activating factor receptor (Homo sapiens, UniProt P25105); also: in other assays of this panel Not Active means under 50% inhibition at 10 µM
# Sequence (P25105 whole entry): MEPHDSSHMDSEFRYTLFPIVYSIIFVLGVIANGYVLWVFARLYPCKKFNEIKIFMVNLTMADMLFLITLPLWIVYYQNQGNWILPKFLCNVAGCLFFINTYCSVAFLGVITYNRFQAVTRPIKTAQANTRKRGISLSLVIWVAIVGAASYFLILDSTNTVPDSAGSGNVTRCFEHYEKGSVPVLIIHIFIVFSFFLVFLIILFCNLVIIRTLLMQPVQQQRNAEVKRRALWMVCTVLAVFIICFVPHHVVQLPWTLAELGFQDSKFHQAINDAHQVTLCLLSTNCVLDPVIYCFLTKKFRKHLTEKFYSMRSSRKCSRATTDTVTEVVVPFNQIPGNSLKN
# Assay Details: biochemical
# Type: tissue-based
# Measurement Context: platelet
Observed Property: IC50

Example cases with answers are listed next.
{"columns": ["Compound", "Tested On", "Observed Result"],
 "data": [
  ["OCCN1CCN(CCCN2c3ccccc3Sc3ccc(Cl)cc32)CC1", "Platelet-activating factor receptor (Homo sapiens, UniProt P25105)", "Not Active"],
  ["O=C(O)c1cc(=O)c2c(OCC(O)COc3cccc4oc(C(=O)O)cc(=O)c34)cccc2o1", "Platelet-activating factor receptor (Homo sapiens, UniProt P25105)", "Not Active"],
  ["COc1cc(C(=O)NS(=O)(=O)c2ccccc2C)ccc1Cc1cn(C)c2ccc(NC(=O)OC3CCCC3)cc12", "Platelet-activating factor receptor (Homo sapiens, UniProt P25105)", "Not Active"],
  ["CC(C)(C)NC[C@H](O)COc1nsnc1N1CCOCC1", "Platelet-activating factor receptor (Homo sapiens, UniProt P25105)", "Not Active"],
  ["C[C@]12CCC(=O)C=C1CC[C@@H]1[C@@H]2[C@@H](O)C[C@@]2(C)[C@H]1CC[C@]2(O)C(=O)CO [HYDROCORTISONE]", "Platelet-activating factor receptor (Homo sapiens, UniProt P25105)", "Not Active"]
]}

Need IC50 of C[C@H](C(=O)O)c1cccc(C(=O)c2ccccc2)c1 , thanks.
Not Active

Which value of IC50 has been reported for Cc1cn[nH]c1 [FOMEPIZOLE] in the records?
Not Active

IC50 for NC[C@H]1O[C@H](O[C@H]2[C@H](O)[C@@H](O[C@H]3O[C@H](CO)[C@@H](O)[C@H](N)[C@H]3O)[C@H](N)C[C@@H]2N)[C@H](O)[C@@H](O)[C@@H]1O ?
Not Active

Consider the compound CCOC(=O)[C@H](CCc1ccccc1)N[C@@H](C)C(=O)N1CCC[C@H]1C(=O)O and give its measured IC50.
Not Active

# lookup: IC50 of Cc1c(F)c(N2CCNC(C)C2)cc2c1c(=O)c(C(=O)O)cn2C1CC1 (centres undefined)
Not Active

----------
# Tested On: UniProt:P23975
# Sequence (P23975 whole entry): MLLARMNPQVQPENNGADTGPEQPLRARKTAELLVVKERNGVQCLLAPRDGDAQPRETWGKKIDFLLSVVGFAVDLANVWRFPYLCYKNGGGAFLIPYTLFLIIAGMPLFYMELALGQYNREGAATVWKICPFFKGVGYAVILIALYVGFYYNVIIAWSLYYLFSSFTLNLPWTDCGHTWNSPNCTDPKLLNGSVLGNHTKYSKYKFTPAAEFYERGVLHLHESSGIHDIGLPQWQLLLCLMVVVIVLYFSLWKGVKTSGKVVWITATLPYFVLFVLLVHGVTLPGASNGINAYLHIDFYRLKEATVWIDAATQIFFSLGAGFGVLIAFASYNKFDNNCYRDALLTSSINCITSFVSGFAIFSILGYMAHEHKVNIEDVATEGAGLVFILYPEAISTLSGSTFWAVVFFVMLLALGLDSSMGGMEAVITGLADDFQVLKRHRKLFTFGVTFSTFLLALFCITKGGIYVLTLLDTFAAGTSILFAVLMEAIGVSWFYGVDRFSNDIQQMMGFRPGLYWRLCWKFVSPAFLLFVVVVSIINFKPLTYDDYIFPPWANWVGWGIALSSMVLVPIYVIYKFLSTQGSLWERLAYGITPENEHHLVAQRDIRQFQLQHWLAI
# Assay Details: DRUGMATRIX: Norepinephrine Transporter radioligand binding (ligand: [125I] RTI-55)
# Assay type: cell membranes, MDCK, Membrane
# Measurement Context: Not Active = under 50% inhibition at 10 µM; read-out: Ki
Listed below: pKi values for each entry.
When answering, recall that pKi equals minus log10 of the concentration in mol/L, and write that number alone.

Check out these entries, answers already filled in.
{"columns": ["Molecule", "pKi"],
 "data": [
  ["CC(CCc1ccc(O)cc1)NCCc1ccc(O)c(O)c1 (stereo not given) [DOBUTAMINE]", 6.42],
  ["COc1cc(N)nc2[nH]c(-c3ccc(F)cc3)c(-c3ccncc3)c12", 5.97],
  ["OCCN1CCN(CCCN2c3ccccc3Sc3ccc(C(F)(F)F)cc32)CC1 [FLUPHENAZINE]", 5.71],
  ["COc1ccc2cc(CCC(C)=O)ccc2c1 [NABUMETONE]", 5.73]
]}

With those in mind, consider the next molecule.
Recorded pKi for CC[C@H](C)C(=O)O[C@H]1C[C@@H](C)C=C2C=C[C@H](C)[C@H](CC[C@@H]3C[C@@H](O)CC(=O)O3)[C@H]21 [LOVASTATIN] , please?
5.06

----------
Each entry below lists one item and its recorded pIC50 value.
# Tested On: Sigma non-opioid intracellular receptor 1 (Homo sapiens)
# Sequence (Q99720 whole entry): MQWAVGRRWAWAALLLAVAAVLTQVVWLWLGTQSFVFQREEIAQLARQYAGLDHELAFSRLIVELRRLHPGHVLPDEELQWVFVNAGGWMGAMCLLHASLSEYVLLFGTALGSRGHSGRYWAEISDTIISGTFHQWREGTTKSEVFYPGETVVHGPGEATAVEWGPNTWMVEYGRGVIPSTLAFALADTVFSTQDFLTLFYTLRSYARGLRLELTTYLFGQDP
# Assay Details: DRUGMATRIX: Sigma1 radioligand binding (ligand: [3H] Haloperidol)
# Format: cell membranes, Jurkat, Membrane
# Measurement Context: Not Active = under 50% inhibition at 10 µM; read-out: IC50
Remember, pIC50 is on a log scale: it is -log10 of the molar concentration.

# count of solved cases: 3
{"columns": ["Molecule", "Tested On", "pIC50"],
 "data": [
  ["CCN[C@@H](C)Cc1cccc(C(F)(F)F)c1", "Sigma non-opioid intracellular receptor 1 (Homo sapiens)", 6.29],
  ["O=c1n(CCCN2CCN(c3cccc(Cl)c3)CC2)nc2ccccn12", "Sigma non-opioid intracellular receptor 1 (Homo sapiens)", 5.66],
  ["CCN(CC)CC#CCOC(=O)C(O)(c1ccccc1)C1CCCCC1 (centres undefined)", "Sigma non-opioid intracellular receptor 1 (Homo sapiens)", 7.62]
]}

Please look at the following molecule next.
Item OCCN1CCN(CCCN2c3ccccc3Sc3ccc(C(F)(F)F)cc32)CC1 has what recorded pIC50?
7.70

----------
# Tested On: Interstitial collagenase (Homo sapiens, UniProt P03956);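 also: MMP-1 enzyme inhibition assay using a peptide substrate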; also: in other assays of this panel Not Active means under 50% inhibition at 10 µM
# Sequence (P03956 whole entry): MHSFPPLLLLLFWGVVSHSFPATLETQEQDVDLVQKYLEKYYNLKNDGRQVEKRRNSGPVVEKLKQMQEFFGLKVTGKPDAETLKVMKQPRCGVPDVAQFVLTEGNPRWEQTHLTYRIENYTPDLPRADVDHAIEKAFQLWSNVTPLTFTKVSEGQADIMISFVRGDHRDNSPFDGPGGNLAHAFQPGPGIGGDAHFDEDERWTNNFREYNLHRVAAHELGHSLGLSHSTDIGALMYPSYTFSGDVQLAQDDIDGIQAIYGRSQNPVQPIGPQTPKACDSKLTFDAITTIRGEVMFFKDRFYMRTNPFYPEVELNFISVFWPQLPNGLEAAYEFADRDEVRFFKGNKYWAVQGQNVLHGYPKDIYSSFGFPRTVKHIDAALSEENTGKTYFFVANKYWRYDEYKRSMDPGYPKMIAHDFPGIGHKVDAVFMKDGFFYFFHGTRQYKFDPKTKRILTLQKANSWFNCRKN
# Assay type: tissue-based, Rheumatoid synovial fibroblasts
Observed Property: IC50

{"columns": ["Compound", "IC50"],
 "data": [
  ["C[C@@H](O)[C@H]1C(=O)N2C(C(=O)O)=C(S[C@@H]3CN[C@H](C(=O)N(C)C)C3)[C@H](C)[C@H]12 [MEROPENEM]", "Not Active"],
  ["COc1ccc(/C=C/C(=O)Nc2ccccc2C(=O)O)cc1OC", "Not Active"],
  ["CC(=O)OCC(CCn1cnc2cnc(N)nc21)COC(C)=O [FAMCICLOVIR]", "Not Active"],
  ["O=C(O)c1cccnc1 [NIACIN]", "Not Active"],
  ["C#CCN(C)[C@H](C)Cc1ccccc1 [SELEGILINE]", "Not Active"],
  ["CC[C@H]1OC(=O)[C@H](C)[C@@H](O[C@H]2C[C@@](C)(OC)[C@@H](O)[C@H](C)O2)[C@H](C)[C@@H](O[C@@H]2O[C@H](C)C[C@H](N(C)C)[C@H]2O)[C@](C)(OC)C[C@@H](C)C(=O)[C@H](C)[C@@H](O)[C@]1(C)O [CLARITHROMYCIN]", "Not Active"]
]}

Now turn to the next compound.
Which measured IC50 value corresponds to CO[C@H]1C[C@@H]2CC[C@@H](C)[C@@](O)(O2)C(=O)C(=O)N2CCCC[C@H]2C(=O)O[C@H]([C@H](C)C[C@@H]2CC[C@@H](O)[C@H](OC)C2)CC(=O)[C@H](C)/C=C(\C)[C@@H](O)[C@@H](OC)C(=O)[C@H](C)C[C@H](C)/C=C/C=C/C=C/1C [SIROLIMUS] ?
Not Active
